Each record here notes measured IC50.
target: recombinant human NaV1.8 stably transfected HEK cells (Homo sapiens); construct: expressed in transfected cells; host or cells: HEK cells, stably transfected; experiment: Compound profiling on NaV1.8, human NaV1.8 cell line, SyncroPatch384PE automated patch clamp assay (Example 102, first set of compounds, Table 16); format: cell-based; conditions: resting state block (P1 measurement), human NaV1.8 HEK cells, Table 16 (first set of compounds), read-out: P1IC50
Sequence (Q9Y5Y9 whole entry): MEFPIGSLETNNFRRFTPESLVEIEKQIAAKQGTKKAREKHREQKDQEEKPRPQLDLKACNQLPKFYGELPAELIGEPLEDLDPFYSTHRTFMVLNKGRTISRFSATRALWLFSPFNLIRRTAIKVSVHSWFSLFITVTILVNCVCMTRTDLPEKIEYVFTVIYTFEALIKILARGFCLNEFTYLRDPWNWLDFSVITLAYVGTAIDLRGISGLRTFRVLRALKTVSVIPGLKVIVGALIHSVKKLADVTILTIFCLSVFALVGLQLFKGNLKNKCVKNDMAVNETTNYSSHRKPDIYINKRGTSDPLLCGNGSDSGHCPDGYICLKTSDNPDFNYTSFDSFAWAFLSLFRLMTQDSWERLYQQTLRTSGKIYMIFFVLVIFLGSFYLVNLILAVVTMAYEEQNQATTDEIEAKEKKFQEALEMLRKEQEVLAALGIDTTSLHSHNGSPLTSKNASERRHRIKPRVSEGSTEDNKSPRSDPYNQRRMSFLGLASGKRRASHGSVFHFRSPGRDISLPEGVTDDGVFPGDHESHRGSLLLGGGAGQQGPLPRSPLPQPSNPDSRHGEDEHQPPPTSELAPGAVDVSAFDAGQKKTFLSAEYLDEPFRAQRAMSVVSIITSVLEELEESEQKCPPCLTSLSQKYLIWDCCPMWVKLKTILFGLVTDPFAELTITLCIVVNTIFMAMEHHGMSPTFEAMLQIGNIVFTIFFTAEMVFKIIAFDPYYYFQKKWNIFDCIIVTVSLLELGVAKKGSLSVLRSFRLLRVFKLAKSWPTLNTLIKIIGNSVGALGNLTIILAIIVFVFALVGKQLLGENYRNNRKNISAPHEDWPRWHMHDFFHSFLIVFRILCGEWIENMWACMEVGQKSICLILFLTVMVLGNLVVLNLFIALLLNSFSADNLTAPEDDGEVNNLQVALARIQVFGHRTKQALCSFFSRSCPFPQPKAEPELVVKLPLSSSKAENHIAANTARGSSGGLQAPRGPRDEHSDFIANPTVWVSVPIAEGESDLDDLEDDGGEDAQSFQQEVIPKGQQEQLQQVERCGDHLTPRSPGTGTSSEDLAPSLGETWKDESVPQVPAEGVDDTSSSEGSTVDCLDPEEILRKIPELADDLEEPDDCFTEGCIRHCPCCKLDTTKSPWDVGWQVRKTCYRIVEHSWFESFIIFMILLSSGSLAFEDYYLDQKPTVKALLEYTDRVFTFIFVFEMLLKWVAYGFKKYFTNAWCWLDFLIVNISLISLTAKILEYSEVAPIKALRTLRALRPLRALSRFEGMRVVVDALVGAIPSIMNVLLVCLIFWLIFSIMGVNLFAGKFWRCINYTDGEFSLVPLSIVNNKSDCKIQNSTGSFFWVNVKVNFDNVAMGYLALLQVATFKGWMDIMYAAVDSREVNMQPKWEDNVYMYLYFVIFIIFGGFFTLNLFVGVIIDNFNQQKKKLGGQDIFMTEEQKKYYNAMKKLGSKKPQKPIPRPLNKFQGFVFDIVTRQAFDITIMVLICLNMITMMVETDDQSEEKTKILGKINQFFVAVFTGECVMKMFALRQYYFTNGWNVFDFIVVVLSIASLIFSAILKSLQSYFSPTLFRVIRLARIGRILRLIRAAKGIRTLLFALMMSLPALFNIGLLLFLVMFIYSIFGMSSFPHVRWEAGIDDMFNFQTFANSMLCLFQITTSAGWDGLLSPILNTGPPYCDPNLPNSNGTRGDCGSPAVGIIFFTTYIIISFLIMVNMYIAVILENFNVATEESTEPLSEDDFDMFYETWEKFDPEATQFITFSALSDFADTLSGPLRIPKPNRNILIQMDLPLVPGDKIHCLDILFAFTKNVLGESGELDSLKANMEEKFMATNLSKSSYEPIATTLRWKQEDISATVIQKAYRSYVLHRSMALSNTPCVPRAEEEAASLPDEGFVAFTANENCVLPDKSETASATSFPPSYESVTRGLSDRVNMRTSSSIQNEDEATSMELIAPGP

[[record]]
compound = "COc1cc(C#N)ccc1Oc1nnc(C2=CCN(C)CC2)c(C)c1C(=O)Nc1cccc(S(C)(=N)=O)c1 (centres unmarked)"
recorded_value = "200 to 500 nM"

[[record]]
compound = "Cc1cc(F)ccc1Oc1nnc(C(F)(F)F)c(N2CCCCC2)c1C(=O)Nc1cccc([S@@](C)(=N)=O)c1"
recorded_value = "200 to 500 nM"

[[record]]
compound = "COc1cc(C#N)ccc1Oc1nnc(-c2ccc(C)cc2)c(C)c1C(=O)Nc1cccc(S(C)(=N)=O)c1 (centres unmarked)"
recorded_value = "≤ 20 nM"

[[record]]
compound = "NC(=O)c1ccc(NC(=O)c2cc(C(F)(F)F)cnc2Oc2ccc(C(F)F)nc2)cc1"
recorded_value = "200 to 500 nM"


In the following, a different compound is considered.
# IC50 measured on recombinant human NaV1.8 stably transfected HEK cells (Homo sapiens) for item `Cc1c(C(F)(F)F)nnc(Oc2ccc(OC(C)C)c(F)c2F)c1C(=O)Nc1ccnnc1` = ≤ 20 nM
